- measured_on: Heat shock factor protein 1 (Mus musculus, UniProt P38532)
- Sequence (P38532 whole entry): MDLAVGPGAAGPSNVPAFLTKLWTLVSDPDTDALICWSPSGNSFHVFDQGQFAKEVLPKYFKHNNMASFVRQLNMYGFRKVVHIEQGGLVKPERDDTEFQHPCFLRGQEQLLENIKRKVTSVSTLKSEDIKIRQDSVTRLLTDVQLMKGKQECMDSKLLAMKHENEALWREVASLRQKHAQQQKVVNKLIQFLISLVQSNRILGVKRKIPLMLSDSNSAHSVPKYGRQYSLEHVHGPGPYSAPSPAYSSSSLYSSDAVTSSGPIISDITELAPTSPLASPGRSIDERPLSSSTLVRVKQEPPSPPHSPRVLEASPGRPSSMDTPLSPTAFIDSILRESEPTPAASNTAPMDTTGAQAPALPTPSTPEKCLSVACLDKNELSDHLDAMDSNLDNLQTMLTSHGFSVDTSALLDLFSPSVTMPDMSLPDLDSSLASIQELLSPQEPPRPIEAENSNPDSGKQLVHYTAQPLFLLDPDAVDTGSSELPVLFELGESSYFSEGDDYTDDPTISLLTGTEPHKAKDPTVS
- protocol_description: enhancement of HSF1-driven luciferase signal – cell-based, NIH3T3, luminescence, dose retest, confirmation (AID 435004);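 further: stress induced by proteasome inhibitor MG132 added 30 min after compound; luciferase reporter driven by HSF1 response element in NIH3T3 cells; actives raise luminescence as potentiators of the MG132 stress response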
- Format: functional
The source made the active and inactive calls.
For each record, write down the corresponding EC50.

For the compound `COc1cc(CC(=O)N(c2ccccc2)c2nc(C)cs2)cc(OC)c1OC` , the measured EC50 on Heat shock factor protein 1 (Mus musculus, UniProt P38532) was > 260 µM (inactive)

For the compound CCCCCCC1CCC(C(=O)NC(CCSC)C(=O)NC(C(=O)OC)C(C)C)CC1 (stereo not drawn) , the measured EC50 on Heat shock factor protein 1 (Mus musculus, UniProt P38532) was > 260 µM (inactive)

For the compound CCC(C)NC(=O)c1nc(O)c2nnn(Cc3ccccc3Cl)c2n1 (stereo not drawn) , the measured EC50 on Heat shock factor protein 1 (Mus musculus, UniProt P38532) was > 260 µM (inactive)

---

- protocol_description: STAT3 activation with BCL3 mRNA and toxicity – cell-based, STAT1 reporter, BCL3 qPCR, cytotoxicity, late-stage follow-up, panel member Cytotoxicity (AID 2049)
Calls of active or inactive are those of the source.
property_measured: CC50

Record `COc1cc(NC(=O)c2cc(C3CC3)on2)c(OC)cc1Cl` , field CC50: > 55.7 µM (inactive)

---

- Tested on: INS1
- protocol_description: INS-1E survival protection against cytokine death – cell-based, luminescence, retest, dose response (AID 449756);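 further: cell death triggered by IL-1 beta plus TNF-alpha plus IFN-gamma mixture; protective hits raise ATP signal compared with cytokine alone wells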
- Format: functional
- assay_setup: Rattus norvegicus
The source made the active and inactive calls.
Please reply with one of these outcomes: yes (1) = active, no (0) = inactive

Name the outcome recorded for `O=C(N/N=C/c1ccc([N+](=O)[O-])o1)c1cc2ccccc2o1` in the assay. yes (1)

Name the outcome recorded for `C/C(N)=C(/C#N)C(=O)COC(=O)c1cc(-c2ccc(C)cc2)nc2ccccc12` in the assay. no (0)

Name the outcome recorded for `O=C(N/N=C/c1cc([N+](=O)[O-])ccc1O)c1cccc(NC(=O)c2cccc(Cl)c2)c1` in the assay. yes (1)

Name the outcome recorded for `CCCCCCCCCCOC(=O)C[N+](C)(C)C/C=C(/C)Cl` in the assay. yes (1)

Name the outcome recorded for `Cn1c(/C=C/c2ccc([N+](=O)[O-])o2)nc2ccccc2c1=O` in the assay. yes (1)

---

- measured_on: FAD-linked sulfhydryl oxidase ALR (Homo sapiens, UniProt P55789)
- Sequence (P55789 whole entry): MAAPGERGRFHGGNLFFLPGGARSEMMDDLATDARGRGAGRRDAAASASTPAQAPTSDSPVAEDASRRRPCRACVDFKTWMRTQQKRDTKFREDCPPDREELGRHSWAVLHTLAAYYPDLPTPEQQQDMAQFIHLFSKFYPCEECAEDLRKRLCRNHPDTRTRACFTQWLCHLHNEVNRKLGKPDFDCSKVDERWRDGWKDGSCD
- protocol_description: ALR-catalysed DTT oxidation blockers – biochemical, H2O2 detection, luminescence, cherry-pick, dose response (AID 493248)
Activity calls are given as the source filed them.
property_measured: AC50

For the compound Cc1cc(C)c2c(c1)-c1cc(C)nn1C(c1cccnc1)N2 (centres undefined) , the measured AC50 on FAD-linked sulfhydryl oxidase ALR (Homo sapiens, UniProt P55789) was 1770 nM (active)

For the compound `COc1cccc(CNC(=O)Nc2cccs2)c1` , the measured AC50 on FAD-linked sulfhydryl oxidase ALR (Homo sapiens, UniProt P55789) was 10400 nM (active)

For the compound `CCN1CCN(c2ccc(N)cc2)CC1` , the measured AC50 on FAD-linked sulfhydryl oxidase ALR (Homo sapiens, UniProt P55789) was 4500 nM (active)

For the compound `CCc1nc(SCc2cccnc2)nc(O)c1C` , the measured AC50 on FAD-linked sulfhydryl oxidase ALR (Homo sapiens, UniProt P55789) was 563 nM (active)

For the compound `C/C(=N\NC(=O)c1cccc(N/N=C(\C)c2ccncc2)c1)c1ccncc1` , the measured AC50 on FAD-linked sulfhydryl oxidase ALR (Homo sapiens, UniProt P55789) was 205 nM (active)

For the compound `Nc1n[nH]c(N)c1N=Nc1ccccc1` , the measured AC50 on FAD-linked sulfhydryl oxidase ALR (Homo sapiens, UniProt P55789) was 6020 nM (active)

For the compound `CCN1CCN(c2ccc(N)cc2C)CC1` , the measured AC50 on FAD-linked sulfhydryl oxidase ALR (Homo sapiens, UniProt P55789) was 1730 nM (active)

For the compound `Cc1ccc(-c2nn(-c3ccccc3)cc2CN(Cc2ccccc2)C(=O)CCC(=O)O)o1` , the measured AC50 on FAD-linked sulfhydryl oxidase ALR (Homo sapiens, UniProt P55789) was 471 nM (active)

For the compound `COC(=O)c1[nH]c2ccc(C)cc2c1NS(=O)(=O)c1ccc(F)cc1` , the measured AC50 on FAD-linked sulfhydryl oxidase ALR (Homo sapiens, UniProt P55789) was 1810 nM (active)
